- System: 3D7
- Assay notes: qHTS profiling for inhibitors of Plasmodium falciparum proliferation (AID 504749); also: nearly all actives have a fitted effect of over 60% in size
- Settings: P. falciparum in erythrocytes, SYBR Green DNA, 72 h; series mostly up to 28.7 µM
Records with an inconclusive call do not appear. Active and inactive are the calls of the source. Calls follow the shape of the dose curve; as a rule, active = well fitted inhibition curve with a large enough effect; inconclusive = small, poorly fitted or top-dose-only effect; inactive = flat fitted curve, though single readings scatter.
Choose the fitting class; nothing outside 1.0 for active, 0.0 for inactive is accepted.

[ask] Field: outcome | Entry: Cc1cccc(C(=O)O)c1O
[reply] 0.0

[ask] Record lookup: outcome of this test for CCCCCCCCCCC(CO)CCCCCCCC (configuration not stated) ?
[reply] 0.0

[ask] Dear all, I need the recorded test outcome for NNc1nnc(NN)c2ccccc12 , thank you.
[reply] 0.0

[ask] Called result for N[C@@H](Cc1ccc(O)cc1)C(=O)O
[reply] 0.0

[ask] Could you check what this test reported for Cc1c(I)c(=O)n(-c2ccccc2)n1C ?
[reply] 0.0

[ask] // outcome(item) with item = CC(=O)OC[C@H]1O[C@@](COC(C)=O)(O[C@H]2O[C@H](COC(C)=O)[C@@H](OC(C)=O)[C@H](OC(C)=O)[C@H]2OC(C)=O)[C@@H](OC(C)=O)[C@@H]1OC(C)=O
[reply] 0.0

[ask] Status in this test for NC(=O)CC[C@@H](N)C(=O)O ?
[reply] 0.0

[ask] So what was the verdict on O=C(OOC(=O)c1ccccc1)c1ccccc1 in this test?
[reply] 0.0

[ask] Fill in: this test's call for O=C(CCBr)N1CCN(C(=O)CCBr)CC1 is ___
[reply] 0.0

[ask] For FC(F)(F)C(Cl)Br (configuration not stated) , which call appears in the assay record?
[reply] 0.0

[ask] Returns: the outcome recorded for Cc1cc(=O)[nH]c(=S)[nH]1 in this assay.
[reply] 0.0

[ask] GET /call?item= O[C@@H]1CO[C@H]2[C@@H]1OC[C@@H]2O returns the recorded outcome of this test.
[reply] 0.0

[ask] Test call, this compound: CCCOC(=O)c1ccc(N)cc1
[reply] 0.0

[ask] Recorded test call requested for NC(N)=NS(=O)(=O)c1ccc(N)cc1
[reply] 0.0

[ask] Hi team, can someone confirm the assay call for Cc1cc(NC(=O)C2=C(O)c3ccccc3S(=O)(=O)N2C)no1 ?
[reply] 0.0

[ask] Name the outcome recorded for Cc1ccc(S(=O)(=O)NC(=O)NC2CCCCC2)cc1 in the assay.
[reply] 0.0

[ask] Please indicate how the test categorized Nc1ncnc2c1ncn2[C@@H]1O[C@H](COP(=O)(O)O)[C@@H](O)[C@H]1O .
[reply] 0.0

[ask] Hello, I am checking results. What call was entered for CCCCCCCCCCCCCCCCC(C(=O)O)C(O)(CC(=O)O)C(=O)O (configuration not stated) ?
[reply] 0.0

[ask] Can you look up the reported call for Nc1ccncc1N for me?
[reply] 0.0

[ask] Outcome logged for Cn1c(=O)c2c(ncn2CCO)n(C)c1=O in this assay:
[reply] 0.0

[ask] Dear all, I need the recorded test outcome for CC1CCN(CCCC(=O)c2ccc(F)cc2)CC1 , thank you.
[reply] 0.0

[ask] # lookup: test call for O=C(/C=C/c1ccccc1)OCc1ccccc1
[reply] 0.0

[ask] Per the assay record, what outcome was assigned to CCc1nnc(NS(=O)(=O)c2ccc(N)cc2)s1 ?
[reply] 0.0

[ask] Short answer needed: outcome of this test for COC(=O)c1ccccc1C(=O)c1ccc(OCCN2CCCCC2)cc1 ?
[reply] 0.0

[ask] Field: outcome | Entry: COc1ccc(C(=O)N2CCN(CC(=O)N3CCOCC3)CC2)cc1
[reply] 0.0

[ask] I'd appreciate the recorded outcome for Nc1ccc(S(=O)(=O)c2ccc(N)cc2)cc1 from this test.
[reply] 0.0

[ask] What call does the record list for OCC(O)CS (configuration not stated) ?
[reply] 0.0

[ask] Can you look up the reported call for CC[N+](CC)(CC(=O)Nc1c(C)cccc1C)Cc1ccccc1 for me?
[reply] 0.0

[ask] Just curious, what result did CC1CC(OC(=O)c2ccccc2O)CC(C)(C)C1 (configuration not stated) get here?
[reply] 0.0

[ask] Any idea what this test logged for O=C1c2ccccc2C(=O)C1c1ccc(Br)cc1 ?
[reply] 1.0

[ask] # fetch the recorded call for Cc1c(Cn2ccnc2)c2ccccc2n1CCC(=O)O here
[reply] 0.0

[ask] Fill in: this test's call for Cc1c(C)c2c(c(C)c1OC(=O)c1cccnc1)CC[C@@](C)(CCC[C@H](C)CCC[C@H](C)CCCC(C)C)O2 is ___
[reply] 0.0

[ask] // param item: NC(N)=NCCN1CCCCCCC1 ; yields the recorded call
[reply] 0.0

[ask] // return assay outcome for COc1ccc(C(=O)NCc2ccc(OCCN(C)C)cc2)cc1OC
[reply] 0.0

[ask] Outcome? CN(C/C=C/C#CC(C)(C)C)Cc1cccc2ccccc12
[reply] 0.0

[ask] How did this test come out for CCCCCCCC(=O)OCC(COC(=O)CCCCCCC)OC(=O)CCCCCCC ?
[reply] 0.0

[ask] Would you mind telling me which call this test gave O=C(NCN1CCOCC1)c1cnccn1 ?
[reply] 0.0

[ask] Each compound tested received a call. Report the one for CCN(CC)CC1CCCCN1CC(=O)N1c2ccccc2C(=O)Nc2cccnc21 (configuration not stated) .
[reply] 0.0

[ask] What did the test return for CC(C)C[C@@H](N)C(=O)O ?
[reply] 0.0

[ask] Answer briefly: the call reported for NCC1CCC(C(=O)Oc2ccc(CCC(=O)O)cc2)CC1 (configuration not stated) in this assay.
[reply] 0.0

[ask] Test call for this compound, please: CCS(=O)(=O)CCn1c([N+](=O)[O-])cnc1C
[reply] 0.0

[ask] Test call, this compound: Cc1cc(-n2nc3ccc(Cl)cc3n2)c(O)c(C(C)(C)C)c1
[reply] 0.0

[ask] Kindly provide the recorded test outcome for the following compound: CC(=O)NS(=O)(=O)c1ccc(N)cc1
[reply] 0.0

[ask] GET /call?item= CN1CCN(C(=O)C2CCCCC2)CC1 returns the recorded outcome of this test.
[reply] 0.0

[ask] Short answer needed: outcome of this test for Nc1ccc(C(=O)Oc2ccccc2)c(O)c1 ?
[reply] 0.0

[ask] # fetch the recorded call for Cc1c(N(C)C)c(=O)n(-c2ccccc2)n1C here
[reply] 0.0

[ask] Recorded test outcome, item NC(=O)c1ccc([N+](=O)[O-])cc1Cl
[reply] 0.0

---

- Assay notes: qHTS profiling for inhibitors of Plasmodium falciparum proliferation (AID 504749); also: nearly all actives have a fitted effect of over 60% in size;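 as to activity, negative = inhibition: 0% = DMSO vehicle and full inhibition = artemisinin control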
- Settings: P. falciparum in erythrocytes, SYBR Green DNA, 72 h; at 28.7 µM (top of the series); parasite line A
Records with an inconclusive call do not appear.
I'd appreciate it if you could supply activity, negative = inhibition values for the items below.
Give a bare numeral; the unit % is implied.

[ask] I am curious: what activity, negative = inhibition value has been reported for CC[N+](CC)(CC(=O)Nc1c(C)cccc1C)Cc1ccccc1 ?
[reply] 15.1

[ask] Consider the compound NNC(=O)CP(=O)(c1ccccc1)c1ccccc1 and give its measured activity, negative = inhibition.
[reply] 8.38

[ask] Value lookup for activity, negative = inhibition; key = O=c1[nH]c2cc(C(F)(F)F)c(N3CCOCC3)cc2n(CP(=O)(O)O)c1=O
[reply] 11.3

[ask] Would you kindly share the measured activity, negative = inhibition for CC(C)CCOC(=O)c1ccc(N(C)C)cc1 ?
[reply] 18.9

[ask] Looking for the measured activity, negative = inhibition of Cc1c(C)c2c(c(C)c1OC(=O)c1cccnc1)CC[C@@](C)(CCC[C@H](C)CCC[C@H](C)CCCC(C)C)O2 , can you help?
[reply] -3.82

[ask] I'd like to know its activity, negative = inhibition. The compound in question is OCC(O)CS (stereo not drawn)
[reply] 2.38

[ask] For CN(C/C=C/C#CC(C)(C)C)Cc1cccc2ccccc12 , what is its reported activity, negative = inhibition?
[reply] -1.32

[ask] Look at this compound and give its reported activity, negative = inhibition. FC(F)(F)C(Cl)Br (stereo not drawn)
[reply] 6.28

[ask] Could you share which activity, negative = inhibition value was measured for CCN1CC(CCN2CCOCC2)C(c2ccccc2)(c2ccccc2)C1=O (stereo not drawn) ?
[reply] 10.7

[ask] I'd like to know its activity, negative = inhibition. The compound in question is CC(C)CCCC(C)CCCC(C)CCCCC(C)CCCC(C)CCCC(C)C (stereo not drawn)
[reply] -0.284

[ask] Would you kindly share the measured activity, negative = inhibition for O=C(O)c1ccc[n+]([O-])c1 ?
[reply] -4.83

[ask] Need activity, negative = inhibition, item Nc1ccncc1N
[reply] 9.9

[ask] For the compound shown here, CCCOC(=O)c1ccc(N)cc1 , give the reported activity, negative = inhibition.
[reply] -0.392

[ask] Given CC(=O)Nc1ccc(OCCOCCOc2ccc(NC(C)=O)cc2)cc1 , state its recorded activity, negative = inhibition.
[reply] 6.75

[ask] State the recorded activity, negative = inhibition for this entry: CC(O)CCCCn1c(=O)c2c(ncn2C)n(C)c1=O (stereo not drawn)
[reply] 9.1

[ask] I would be grateful if you could share the reported activity, negative = inhibition for CC(=O)Nc1cccc(O)c1 .
[reply] 7.02

[ask] Which activity, negative = inhibition is listed for O=C(Cn1ccnc1[N+](=O)[O-])NCc1ccccc1 ?
[reply] 12.6

[ask] What value of activity, negative = inhibition has been recorded for this entry: CCCCCCCCCCC(CO)CCCCCCCC (stereo not drawn)
[reply] -1.63

[ask] Which measured activity, negative = inhibition value corresponds to CC(=O)Oc1cccc(C)c1 ?
[reply] 4.88

[ask] For the compound shown here, CCCCCCCCCCCCCCCCC(C(=O)O)C(O)(CC(=O)O)C(=O)O (stereo not drawn) , give the reported activity, negative = inhibition.
[reply] 13.1

[ask] activity, negative = inhibition for O=S1(=O)OC(c2ccc(O)cc2)(c2ccc(O)cc2)c2ccccc21 ?
[reply] -0.266

[ask] Give the measured activity, negative = inhibition of O=C(O)c1cc(=O)c2ccccc2o1 .
[reply] -22.1

[ask] # activity, negative = inhibition lookup, item O=C(O)c1ccccc1C(=O)Nc1ccc(S(=O)(=O)Nc2nccs2)cc1
[reply] 16.3

[ask] Could you tell me which activity, negative = inhibition is on file for CCOc1cc(NC(C)=O)ccc1C(=O)OC ?
[reply] 4.89

[ask] Look up activity, negative = inhibition: CC(C)=CCC/C(C)=C/CO
[reply] -3.97

[ask] Recorded activity, negative = inhibition for NS(=O)(=O)c1cc(-c2nn[nH]n2)c(NCc2cccs2)cc1Cl , please?
[reply] 0.998

[ask] Find the recorded activity, negative = inhibition belonging to OCc1ccc(Cl)cc1Cl and report it.
[reply] -3.83

[ask] Given the compound Nc1ccc(S(=O)(=O)c2ccc(N)cc2)cc1 , what is its reported activity, negative = inhibition?
[reply] 2.8

[ask] Give its activity, negative = inhibition value. Item: COc1cc(O)cc(O)c1
[reply] 4.63

[ask] Reported activity, negative = inhibition for COc1cc(C(=O)NCCCCCC(=O)O)cc(OC)c1OC : what is it?
[reply] 8.13

[ask] Consider the compound O=C(Cn1ccnc1[N+](=O)[O-])NCCO and give its measured activity, negative = inhibition.
[reply] 4.18

[ask] What does the data say about its activity, negative = inhibition? Entry: Cc1cccc(C(=O)O)c1O
[reply] 14.5

[ask] Quick one: activity, negative = inhibition for CCCC(O)C(CC)CO (stereo not drawn) ?
[reply] 12.2

These measurements were taken from PubChem BioAssay (NCATS).
